experiment: Biodistribution of ^nat/52Mn-based probes in naïve mice; type: in vivo, mouse; details: 24 h post injection
Please respond with reported Biodistribution, Skin for every item in the list.
Quick note: number first, unit second.

# compound `NNCC(=O)NCCCN1CCN(CC(=O)[O-])Cc2cccc(n2)CN(CC(=O)[O-])CC1.[Mn+2]` ; its Biodistribution, Skin = 0.0925 % ID/g

Lab note: NNC(CCC(=O)NCCCN1CCN(CC(=O)[O-])Cc2cccc(n2)CN(CC(=O)[O-])CC1)C(=O)O.[Mn+2] (stereo not shown) gave Biodistribution, Skin of 0.0719 % ID/g

Given item NOC(CCC(=O)NCCCN1CCN(CC(=O)[O-])Cc2cccc(n2)CN(CC(=O)[O-])CC1)C(=O)O.[Mn+2] (stereo not shown) , the value recorded as its Biodistribution, Skin is 0.9457 % ID/g

Just so you know, measured Biodistribution, Skin for CN(C)C(CCC(=O)NCCCN1CCN(CC(=O)[O-])Cc2cccc(n2)CN(CC(=O)[O-])CC1)C(=O)O.[Mn+2] (stereo not shown) came out at 0.0243 % ID/g

###

Please go through the items and note down their increase of r1 in BSA^Ald compared to PBS value.
Target: BSA-ALD (oxidized bovine serum albumin containing allysine aldehyde groups) (Bos taurus)
Construct: made in house; host or cells: no expression host: BSA oxidised chemically with sodium ascorbate, ferric chloride and H2O2, then desalted on PD-10
Sequence (P02769 25-607): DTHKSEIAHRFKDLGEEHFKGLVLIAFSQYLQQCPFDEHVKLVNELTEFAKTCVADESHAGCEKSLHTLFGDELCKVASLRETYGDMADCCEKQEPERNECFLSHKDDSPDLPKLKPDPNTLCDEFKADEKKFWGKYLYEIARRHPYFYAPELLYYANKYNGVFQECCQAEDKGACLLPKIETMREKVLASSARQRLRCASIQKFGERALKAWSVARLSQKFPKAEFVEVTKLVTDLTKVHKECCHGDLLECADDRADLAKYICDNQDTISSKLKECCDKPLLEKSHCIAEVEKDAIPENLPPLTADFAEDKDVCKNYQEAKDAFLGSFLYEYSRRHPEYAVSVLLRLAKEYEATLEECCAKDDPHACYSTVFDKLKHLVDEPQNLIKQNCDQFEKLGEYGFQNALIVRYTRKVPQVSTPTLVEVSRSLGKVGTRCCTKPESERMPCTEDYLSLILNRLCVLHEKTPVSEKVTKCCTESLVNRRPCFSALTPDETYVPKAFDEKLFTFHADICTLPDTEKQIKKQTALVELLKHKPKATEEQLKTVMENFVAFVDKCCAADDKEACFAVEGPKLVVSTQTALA
Experiment: Relaxivity measurements with BSA-Ald
Assay type: binding
Conditions: 1.41 T, 37° C.
Experimental: Preparation of Allysine Containing Bovine Serum Albumin, BSA-ALD: To a solution of bovine serum albumin (BSA) (100 mg) dissolved in phosphate buffered saline (4 mL, pH 7.4, 0.25 mM), sodium ascorbate (20 mg), ferric chloride (120 μL, 10 mM) and 20 μL H2O2 (30% w) were added. […] Protein concentration was assessed using the ‘BCA Protein Assay Kit’ (Thermo Scientific). Protein carbonyl concentration was determined by ‘Protein Carbonyl Content Assay Kit’ (Sigmal-Aldrich). […]
Kindly answer with a numeric value in %, unit omitted.

increase of r1 in BSA^Ald compared to PBS value measured on NN1CCN(C(=O)CCC(C(=O)[O-])N2CCN(CC(=O)[O-])CCN(C(CCC(=O)N3CCN(N)CC3)C(=O)[O-])CCN(CC(=O)[O-])CC2)CC1.[Gd+3] (stereo not drawn) [Gd-10, trans-1,7-Gd-(CHyd)2] = 36

Lab note: NNC(CCC(=O)NCCCN1CCN(CC(=O)[O-])Cc2cccc(n2)CN(CC(=O)[O-])CC1)C(=O)O.[Mn+2] (centres unmarked) [Mn-15] gave increase of r1 in BSA^Ald compared to PBS value of 90

increase of r1 in BSA^Ald compared to PBS value measured on NN1CCN(C(=O)CCC(C(=O)[O-])N2CCN(CC(=O)[O-])CCN(CC(=O)[O-])CCN(C(CCC(=O)N3CCNCC3)C(=O)[O-])CC2)CC1.[Gd+3] (centres unmarked) [Gd-11] = 23

Item: NNCC(=O)NCCCN1CCN(CC(=O)[O-])Cc2cccc(n2)CN(CC(=O)[O-])CC1.[Mn+2] [Mn-17] | increase of r1 in BSA^Ald compared to PBS value: 90

The value of increase of r1 in BSA^Ald compared to PBS value measured for the compound NN1CCN(C(=O)CCC(C(=O)[O-])N2CCN(CC(=O)[O-])CCN(CC(=O)[O-])CCN(C(CCC(=O)N3CCN(N)CC3)C(=O)[O-])CC2)CC1.[Gd+3] (stereo not drawn) [Gd-9, cis-1,4-Gd-(CHyd)2] turned out to be 77

###

experiment: Biodistribution of ^nat/52Mn-based probes in naïve mice; type: in vivo, mouse; details: 24 h post injection
I'd be grateful if you could share measured Biodistribution, Brain for these entries.
Report as a plain number; the unit % ID/g is understood.

Entry under test: CN(C)C(CCC(=O)NCCCN1CCN(CC(=O)[O-])Cc2cccc(n2)CN(CC(=O)[O-])CC1)C(=O)O.[Mn+2] (stereo not shown) . Its Biodistribution, Brain was 0.0145

Per the records, this compound ( NNC(CCC(=O)NCCCN1CCN(CC(=O)[O-])Cc2cccc(n2)CN(CC(=O)[O-])CC1)C(=O)O.[Mn+2] (stereo not shown) ) has Biodistribution, Brain equal to 0.0156

Recorded Biodistribution, Brain (compound `NNCC(=O)NCCCN1CCN(CC(=O)[O-])Cc2cccc(n2)CN(CC(=O)[O-])CC1.[Mn+2]` ): 0.0170

Entry NOC(CCC(=O)NCCCN1CCN(CC(=O)[O-])Cc2cccc(n2)CN(CC(=O)[O-])CC1)C(=O)O.[Mn+2] (stereo not shown) — recorded Biodistribution, Brain = 0.0275

###

Biological target: BSA-ALD (oxidized bovine serum albumin containing allysine aldehyde groups) (Bos taurus)
Construct: made in house; host or cells: no expression host: BSA oxidised chemically with sodium ascorbate, ferric chloride and H2O2, then desalted on PD-10
Experiment: Relaxivity measurements with BSA-Ald
Assay type: binding
Conditions: 1.4 T, 37° C., BSA-Ald 10 mg/mL
Protocol: Preparation of Allysine Containing Bovine Serum Albumin, BSA-ALD: To a solution of bovine serum albumin (BSA) (100 mg) dissolved in phosphate buffered saline (4 mL, pH 7.4, 0.25 mM), sodium ascorbate (20 mg), ferric chloride (120 μL, 10 mM) and 20 μL H2O2 (30% w) were added. […] Protein concentration was assessed using the ‘BCA Protein Assay Kit’ (Thermo Scientific). Protein carbonyl concentration was determined by ‘Protein Carbonyl Content Assay Kit’ (Sigmal-Aldrich). […]
Assignment: determine reported r1, +BSA-Ald for the given molecules.
Output spec: scalar in mM⁻¹ s⁻¹, unitless text.

Just so you know, measured r1, +BSA-Ald for CN(C)C(CCC(=O)NCCCN1CCN(CC(=O)[O-])Cc2cccc(n2)CN(CC(=O)[O-])CC1)C(=O)O.[Mn+2] (stereo not drawn) [Mn-18] came out at 3.6

Sample NN1CCN(C(=O)CCC(C(=O)[O-])N2CCN(CC(=O)[O-])CCN(C(CCC(=O)N3CCN(N)CC3)C(=O)[O-])CCN(CC(=O)[O-])CC2)CC1.[Gd+3] (stereo not drawn) [Gd-10, trans-1,7-Gd-(CHyd)2] ; r1, +BSA-Ald observed: 9.0

Memo: NNC(=O)CCCN1CCN(CCCC(=O)NN)CCN(CC(=O)[O-])CCN(CC(=O)[O-])CC1.[Mn+2] [Mn-14] , reported r1, +BSA-Ald: 2.5

Noted for NNC(CCC(=O)NCCCN1CCN(CC(=O)[O-])Cc2cccc(n2)CN(CC(=O)[O-])CC1)C(=O)O.[Mn+2] (stereo not drawn) [Mn-15] : its r1, +BSA-Ald reads 5.9

Memo: NN1CCN(C(=O)CCC(C(=O)[O-])N2CCN(CC(=O)[O-])CCN(CC(=O)[O-])CCN(C(CCC(=O)N3CCNCC3)C(=O)[O-])CC2)CC1.[Gd+3] (stereo not drawn) [Gd-11] , reported r1, +BSA-Ald: 7.6

// r1, +BSA-Ald lookup, molecule = NOC(CCC(=O)NCCCN1CCN(CC(=O)[O-])Cc2cccc(n2)CN(CC(=O)[O-])CC1)C(=O)O.[Mn+2] (stereo not drawn) [Mn-16] , result: 7.7

###

Kindly state Biodistribution, Kidney for each of the entries shown.
assay: Biodistribution of ^nat/52Mn-based probes in naïve mice; assay type: in vivo, mouse; conditions: 24 h post injection
Write the number in % ID/g without appending the unit.

Lookup result for NNC(CCC(=O)NCCCN1CCN(CC(=O)[O-])Cc2cccc(n2)CN(CC(=O)[O-])CC1)C(=O)O.[Mn+2] (stereo not shown) [Mn-15] ; measured Biodistribution, Kidney: 0.7021

get_value(item= NOC(CCC(=O)NCCCN1CCN(CC(=O)[O-])Cc2cccc(n2)CN(CC(=O)[O-])CC1)C(=O)O.[Mn+2] (stereo not shown) [Mn-16] , readout=Biodistribution, Kidney) returns 0.9664

Consider CN(C)C(CCC(=O)NCCCN1CCN(CC(=O)[O-])Cc2cccc(n2)CN(CC(=O)[O-])CC1)C(=O)O.[Mn+2] (stereo not shown) [Mn-18] . Its measured Biodistribution, Kidney is 0.5290

Notebook: NNCC(=O)NCCCN1CCN(CC(=O)[O-])Cc2cccc(n2)CN(CC(=O)[O-])CC1.[Mn+2] [Mn-17] , Biodistribution, Kidney read as 0.5387

###

system: lungs of bleomycin-injured mice; test: PET probe lung uptake in naïve and bleomycin-injured mice (gamma counter); assay type: in vivo, mouse; details: 14 days post bleomycin injury, 90 min post injection
Mark class 1 for Lung uptake, Bleo under 0.9 % ID/g, class 0 if at or over.

In plain terms, does CNCCC1=NN(CC(=O)NCCOCCOCCOCCNC(=O)CN2CCN(CC(=O)[O-])CCN(CC(=O)[O-])CC2)C(=O)C1.[68Ga+3] [^68Ga-6] come in under 0.9 % ID/g for Lung uptake, Bleo?
class 0

Lung uptake, Bleo under 0.9 % ID/g? Item: Cc1cc(O)n(CC(=O)NCCOCCOCCOCCNC(=O)CN2CCN(CC(=O)[O-])CCN(CC(=O)[O-])CC2)n1.[68Ga+3] [^68Ga-3]
class 0

In the record for NC(Cn1cccc1)C(=O)NCCOCCOCCOCCNC(=O)CN1CCN(CC(=O)[O-])CCN(CC(=O)[O-])CC1.[68Ga+3] (centres unmarked) [^68Ga-2] , is Lung uptake, Bleo less than 0.9 % ID/g?
class 0

Please indicate whether the reported Lung uptake, Bleo of NN1CCN(C(=O)CCOCCOCCOCCOCCNC(=O)CN2CCN(CC(=O)[O-])CCN(CC(=O)[O-])CC2)CC1.[68Ga+3] [^68Ga-1] is strictly below 0.9 % ID/g.
class 0

Is the reported Lung uptake, Bleo for O=C([O-])CN1CCN(CC(=O)[O-])CCN(CC(=O)NCCOCCOCCOCCNC(=O)CN2C(=O)CSC2=S)CC1.[64Cu+2] [^64Cu-4] strictly below 0.9 % ID/g?
class 1

Report whether reported Lung uptake, Bleo is lower than 0.9 % ID/g (strictly) for NC(Cn1cccc1)C(=O)NCCOCCOCCOCCNC(=O)CN1CCN(CC(=O)[O-])CCN(CC(=O)[O-])CC1.[64Cu+2] (centres unmarked) [^64Cu-2]
class 1

Decide: Lung uptake, Bleo of O=C([O-])CN1CCN(CC(=O)[O-])CCN(CC(=O)NCCOCCOCCOCCNC(=O)CN2C(=O)CSC2=S)CC1.[68Ga+3] [^68Ga-4] strictly below 0.9 % ID/g?
class 1
